# Tested on: TK-10
# experiment_description: NCI tumour cell line growth inhibition, 48 h
Calls of active or inactive are those of the source. No stated cut-off is given here; in the data, active = GI50 up to about 1.1 µM and inactive = higher.
Measured GI50, listed per entry.

- molecule: "COc1cc(CN2CCCCC2)cc2cc(C(=O)O)c(=O)oc12"
  reported_metric: "GI50"
  test_result: "> 100 µM (inactive)"

Look up GI50 of Nc1nn2c(=O)c3ccccc3nc2s1 and report it.
> 100 µM (inactive)

Using the record for O=C1CNc2cc(N3CCN(c4ccccc4)CC3)ccc2N1 , state its measured GI50.
> 100 µM (inactive)

Find the measured GI50 of Cc1c(N2CCN(C)CC2)nc2ccc(Cl)cc2c1-c1ccccc1 and report it.
> 10 µM (inactive)

Assign GI50 to the following record: COc1cc2c3c(c1Oc1nnnn1-c1ccccc1)-c1c(ccc4c1OCO4)C[C@H]3N(C)CC2
75.5 µM (inactive)

Output GI50 of COc1ccc2c(c1OC)C(C(Cl)(Cl)Cl)N1CCc3cc4c(cc3C1=C2)OCO4 (configuration not stated)
27 µM (inactive)

Annotate the molecule C=CCc1cc(-c2n[nH]c(=S)[nH]2)ccc1N/N=N/c1ccc(C(=O)O)cc1 with its measured GI50.
> 100 µM (inactive)

Determine its reported GI50: O=C(N/N=C(COc1ccc(Cl)cc1)\N=C\c1cccnc1)c1ccncc1
> 100 µM (inactive)

Quote GI50 reported for O=S(=O)(NCn1ccc2ccccc21)c1ccccc1 please.
> 100 µM (inactive)

Give reported GI50 value for Cc1nn(C(=O)c2ccncc2)c2c1C(c1ccc(Cl)cc1)SC(=N)N2 (configuration not stated)
> 10 µM (inactive)

// fetch GI50 given entry CNC(=O)CNC(=O)CCC(=O)OC
> 100 µM (inactive)
